- test.target: Gastrin/cholecystokinin type B receptor (Cavia porcellus)
- assay.comment: In vitro affinity to the cholecystokinin type B receptor in guinea pig cortex assayed using [125I]BH-CCK-8 as radioligand
// map IC50 onto a label; ranges Low: < 2 nM; Medium: ≥ 2 nM and < 20 nM; High: ≥ 20 nM

chemical.smiles | assigned.category
Cc1cccc(NC(=O)N[C@@H]2C[C@H](c3ccccc3)c3ccccc3N(CC(=O)OC(C)(C)C)C2=O)c1 | Medium
Cc1ccc2c(c1)N(CC(=O)NC(C)(C)C)C(=O)[C@H](NC(=O)Nc1cccc(Cl)c1)C[C@@H]2C1CCCCC1 | Low
CC(C)(C)NC(=O)CN1C(=O)[C@H](NC(=O)Nc2cccc(Cl)c2)C[C@H](c2ccccc2)c2cc(Cl)ccc21 | High
CC(C)(C)NC(=O)CN1C(=O)[C@H](NC(=O)Nc2cccc(Cl)c2)C[C@H](c2cccc(Cl)c2)c2ccccc21 | Medium
CN(C(=O)CN1C(=O)[C@H](NC(=O)Nc2cccc(Cl)c2)C[C@H](c2ccccc2)c2ccccc21)C(C)(C)C | Low
Cc1ccc(NC(=O)N[C@@H]2C[C@H](c3ccccc3)c3ccccc3N(CC(=O)NC(C)(C)C)C2=O)cc1 | High
CCC(C)(C)NC(=O)CN1C(=O)[C@H](NC(=O)Nc2cccc(Cl)c2)C[C@H](c2ccccc2)c2ccccc21 | Medium
Cc1ccccc1NC(=O)N[C@@H]1C[C@H](c2ccccc2)c2ccccc2N(CC(=O)NC(C)(C)C)C1=O | High
Cc1ccc2c(c1)N(CC(=O)NC(C)(C)C)C(=O)[C@H](NC(=O)Nc1cccc(Cl)c1)C[C@@H]2Cc1ccccc1 | Low
COc1cccc(NC(=O)N[C@@H]2C[C@H](c3ccccc3)c3ccccc3N(CC(=O)NC(C)(C)C)C2=O)c1 | High

###

- test.target: Gastrin/cholecystokinin type B receptor (Cavia porcellus)
- assay.comment: In vitro affinity to the cholecystokinin type B receptor in guinea pig cortex assayed using [125I]BH-CCK-8 as radioligand
pIC50: −log10 of the molar value.

chemical.smiles | pIC50
Cc1ccc2c(c1)[C@@H](c1ccccc1)C[C@@H](NC(=O)Nc1cccc(Cl)c1)C(=O)N2CC(=O)NC(C)(C)C | 7.49
Cc1cccc(NC(=O)N[C@@H]2C[C@H](c3ccccc3)c3ccccc3N(CC(=O)NC(C)(C)C)C2=O)c1 | 8.00
Cc1ccc2c(c1)N(CC(=O)OC(C)(C)C)C(=O)[C@H](NC(=O)Nc1cccc(Cl)c1)C[C@@H]2c1ccccc1 | 8.66
Cc1ccc2c(c1)N(CC(=O)NC(C)(C)C)C(=O)[C@H](NC(=O)Nc1cccc(Cl)c1)C[C@@H]2C(C)C | 8.47
